- System: HPPD polypeptides (wild-type SEQ ID NO:1 and mutants)
- testSettings: in the presence of mesotrione (MST), 60 μM inhibitor, high substrate concentration; total change in signal normalized to no inhibitor
measurementKind: Residual turnover (%)

| molecule | resultNumber |
| --- | --- |
| 21 (protein, mutant HPPD polypeptide) MADLYENPMGLMGFEFIEFASPTPGTLEPIFEIMGFTKVATHRSKNVHLYRQGEINLILNNEPNSIASYFAAEHGPSVCGMAFRVKDSQKAYNRALELGAQPIHIDTGPMELNLPAIKGIGGAPLYLIDRFGEGSSIYDIDFVYLEGVERNPVGAGLKVIDHLTHNVYRGRMVYWANFYEKLFNFREARYFDIKGEYTGLTSKAMSAPDGMIRIPLNEESSKGAGQIEEFLMQFNGEGIQHVAFLTDDLVKTWDALKKIGMRFMTAPPDTYYEMLEGRLPDHGEPVDQLQARGILLDGSSVEGDKRLLLQIFSETLMGPVFFEFIQRKGDDGFGPHSFKALFESIERDQVRRGVLTAD | 89 |
